- METHOD_DESCRIPTION: Plasma concentration in Beagle dog at 5 mg/kg, SC and measured after 10 days by LC-MS/MS analysis
- Type: ADME, organism-based, Canis lupus familiaris
- EXPERIMENTAL_SETUP: time 10 day
REPORTED_PROPERTY: concentration at 240 h

[ask] # concentration at 240 h lookup, item C[C@@H]1CN(c2ccc3c(=O)n(-c4ccc(Cl)c5c(NS(C)(=O)=O)nn(C)c45)c([C@H](Cc4cc(F)cc(F)c4)NC(=O)Cn4nc(C(F)F)c5c4C(F)(F)[C@@H]4C[C@H]54)nc3c2)C[C@H](C)O1
[reply] < 2.2 ng/mL

====

- METHOD_DESCRIPTION: AUC (0 to 24) in female Beagle dog at 100 mg/kg, po QD and measured after 7 days by LC-MS/MS analysis
- Assay type: ADME, organism-based, Canis lupus familiaris
- Set-up: dose 100 mg/kg, time 7 day, route po
- EXPERIMENTAL_SETUP: in vivo
REPORTED_PROPERTY: AUC at 168 h (ng·h/mL)
One number for each entry, in ng·h/mL.

[ask] # AUC at 168 h lookup, item C[C@@H]1CN(c2ccc3c(=O)n(-c4ccc(Cl)c5c(NS(C)(=O)=O)nn(C)c45)c([C@H](Cc4cc(F)cc(F)c4)NC(=O)Cn4nc(C(F)F)c5c4C(F)(F)[C@@H]4C[C@H]54)nc3c2)C[C@H](C)O1
[reply] 6780

====

- METHOD_DESCRIPTION: AUC (0 to 24) in male Beagle dog at 100 mg/kg, po QD and measured after 7 days by LC-MS/MS analysis
- Assay type: ADME, organism-based, Canis lupus familiaris
- Set-up: dose 100 mg/kg, time 7 day, route po
- EXPERIMENTAL_SETUP: in vivo
REPORTED_PROPERTY: AUC at 168 h (µg·h/mL)
Give bare numbers, in µg·h/mL.

[ask] # AUC at 168 h lookup, item C[C@@H]1CN(c2ccc3c(=O)n(-c4ccc(Cl)c5c(NS(C)(=O)=O)nn(C)c45)c([C@H](Cc4cc(F)cc(F)c4)NC(=O)Cn4nc(C(F)F)c5c4C(F)(F)[C@@H]4C[C@H]54)nc3c2)C[C@H](C)O1
[reply] 299

====

- Tested on: Human immunodeficiency virus 1
- METHOD_DESCRIPTION: Antiviral activity against HIV-1 NLRep-Rluc infected in human MT2 cells assessed as inhibition of viral growth incubated for 96 hrs by renilla luciferase assay
- Assay type: functional, organism-based
- EXPERIMENTAL_SETUP: Human immunodeficiency virus 1, NLRep-Rluc, MT2, 96 h
Provide the recorded EC50 for the entries that follow.
Give bare numbers, in nM.

| STRUCTURE_NOTATION | EC50 [nM] |
| --- | --- |
| C[C@@H]1CN(c2ccc3c(=O)n(-c4ccc(Cl)c5c(NS(C)(=O)=O)nn(C)c45)c([C@H](Cc4cc(F)cc(F)c4)NC(=O)Cn4nc(C(F)F)c5c4C(F)(F)[C@@H]4C[C@H]54)nc3c2)C[C@H](C)N1C | 0.091 |
| Cn1nc(NS(C)(=O)=O)c2c(Cl)ccc(-n3c([C@H](Cc4cc(F)cc(F)c4)NC(=O)Cn4nc(C(F)F)c5c4C(F)(F)[C@@H]4C[C@H]54)nc4cc(N5CCOC(C)(C)C5)ccc4c3=O)c21 | 0.05 |
| Cn1nc(NS(C)(=O)=O)c2c(Cl)ccc(-n3c([C@H](Cc4cc(F)cc(F)c4)NC(=O)Cn4nc(C(F)F)c5c4C(F)(F)[C@@H]4C[C@H]54)nc4cc(N5CC(C)(C)OC(C)(C)C5)ccc4c3=O)c21 | 0.12 |
| CCN(CC)c1ccc2c(=O)n(-c3ccc(Cl)c4c(NS(C)(=O)=O)nn(C)c34)c([C@H](Cc3cc(F)cc(F)c3)NC(=O)Cn3nc(C(F)F)c4c3C(F)(F)[C@@H]3C[C@H]43)nc2c1 | 0.2 |

// switching to the query compound
[ask] # EC50 lookup, item Cn1nc(NS(C)(=O)=O)c2c(Cl)ccc(-n3c([C@H](Cc4cc(F)cc(F)c4)NC(=O)Cn4nc(C(F)F)c5c4C(F)(F)[C@@H]4C[C@H]54)nc4cc(Br)ccc4c3=O)c21
[reply] 0.053

Where do the numbers come from? From ChEMBL document CHEMBL5316333.
